Listed compounds paired with reported TGI
System: MDA-MB-468 breast
Assay: NCI tumour cell line growth inhibition, 48 h

# annotated cases, reported TGI shown
{"columns": ["compound", "TGI"],
 "data": [
  ["COc1cc(OC)cc(C2CC(=O)Nc3c2c(C)nn3-c2nc3ccccc3[nH]2)c1 (centres undefined)", "> 100 µM"],
  ["COC(=O)C[C@](O)(CCC(C)C)C(=O)O[C@H]1C(OC)=C[C@@]23CCCN2CCc2cc4c(cc2[C@@H]13)OCO4", "> 8.31 µM"],
  ["O=c1c(Oc2ccc(F)cc2F)cc2cnc(NC3CCOCC3)nc2n1C1CCS(=O)(=O)CC1", "> 25 µM"]
]}

// moving on: another record for TGI
Query string: Recorded TGI of O=c1ccn(C2OC(CO)C(O)C2F)c(=O)[nH]1 (centres undefined) , please.
Result string: > 1000 µM
